Reference for the values: ChEMBL document CHEMBL1201862

- System: NCI-H522
- EXPERIMENT: NCI tumour cell line growth inhibition, 48 h
Calls of active or inactive are those of the source. Rule as the data show it: active = GI50 up to about 1.1 µM and inactive = higher.
Outcome codes: active, inactive

# COMPOUND, CLASS NAME
records = [
    ("CC(C)(C)NC(=O)/C(=C\\Sc1ccccc1)c1ccccc1", "inactive"),
    ("CCc1nc(N)nc(N)c1-c1ccc(NCCc2ccccc2)c([N+](=O)[O-])c1", "active"),
    ("CC(=O)c1ccc2c3c1O[C@H]1c4[nH]c5ccccc5c4C[C@@]4(O)[C@@H](C2)N(CC2CC2)CC[C@]314", "inactive"),
    ("O=C1/C(=C\\Oc2ccc(F)cc2)N2CCC1CC2", "inactive"),
    ("CC(C)(CO)CNc1cc(Cl)nc(N)n1", "inactive"),
    ("COc1cc(C2S/C(=C/c3ccccc3)C(=O)N2c2ccccc2Cl)cc(OC)c1OC (stereo not given)", "inactive"),
    ("COc1ccccc1C(=O)c1c(N2CCCCC2)c(=O)c1=O", "inactive"),
    ("COC(=O)C1C(O)C(C)C(O)C(C)(O)C=C(C)C2=C3C(=C(C)C(=O)c4c(O)c(c(C)c(OC(C)=O)c43)NC(=O)C(C)=C/C=C\\C(C)(O)C(O)C(C)C1O)OCO2 (stereo not given)", "inactive"),
    ("CC(=O)NC(Cc1ccc(O)cc1)C(=O)O (stereo not given)", "inactive"),
    ("COc1ccc(C(=O)/C=C/c2ccc(OCC(=O)O)cc2)cc1", "inactive"),
    ("CN(C)CCCc1cccc2[nH]c3c(c12)CN(C)CC3", "inactive"),
    ("COC(=O)C1C(C(=O)OC)C2(OC)c3ccccc3-c3ccccc3C12 (stereo not given)", "inactive"),
    ("COc1ccc(C(=O)/C=C/c2ccc(O)c(O)c2)c(OC)c1", "active"),
    ("CCCCn1cnc2c(SC)ncnc21", "inactive"),
    ("CC(C)N1CCN(c2ccc(OCC3COC(Cn4cncn4)(c4ccc(Cl)cc4Cl)O3)cc2)CC1 (stereo not given)", "inactive"),
    ("COC(=O)C(=O)C(CC(=O)Nc1c(C)cccc1C)C(=O)OC (stereo not given)", "inactive"),
    ("Cn1c(N=P(c2ccccc2)(c2ccccc2)c2ccccc2)c([N+](=O)[O-])c(=O)n(C)c1=O", "inactive"),
    ("O=C(CCCCCCCCC(=O)OCC1OC(n2cnc3c(=O)[nH]cnc32)C(O)C1O)OCC1OC(n2cnc3c(=O)[nH]cnc32)C(O)C1O (stereo not given)", "inactive"),
    ("COc1ccc2c[n+](C)c3c4cc(OC)c(OC)cc4ccc3c2c1", "inactive"),
    ("CCCCCCCCCCCCSC(=S)c1c(C)[nH]n(CCCCCCCCCCCC)c1=O", "inactive"),
]
